experimental_target: SmMCM (methylmalonyl-CoA mutase from S. meliloti) (Rhizobium meliloti, UniProt O86028)
Construct: made in house; host or cells: E. coli BL21(DE3)pLysS
Sequence (O86028 2-712): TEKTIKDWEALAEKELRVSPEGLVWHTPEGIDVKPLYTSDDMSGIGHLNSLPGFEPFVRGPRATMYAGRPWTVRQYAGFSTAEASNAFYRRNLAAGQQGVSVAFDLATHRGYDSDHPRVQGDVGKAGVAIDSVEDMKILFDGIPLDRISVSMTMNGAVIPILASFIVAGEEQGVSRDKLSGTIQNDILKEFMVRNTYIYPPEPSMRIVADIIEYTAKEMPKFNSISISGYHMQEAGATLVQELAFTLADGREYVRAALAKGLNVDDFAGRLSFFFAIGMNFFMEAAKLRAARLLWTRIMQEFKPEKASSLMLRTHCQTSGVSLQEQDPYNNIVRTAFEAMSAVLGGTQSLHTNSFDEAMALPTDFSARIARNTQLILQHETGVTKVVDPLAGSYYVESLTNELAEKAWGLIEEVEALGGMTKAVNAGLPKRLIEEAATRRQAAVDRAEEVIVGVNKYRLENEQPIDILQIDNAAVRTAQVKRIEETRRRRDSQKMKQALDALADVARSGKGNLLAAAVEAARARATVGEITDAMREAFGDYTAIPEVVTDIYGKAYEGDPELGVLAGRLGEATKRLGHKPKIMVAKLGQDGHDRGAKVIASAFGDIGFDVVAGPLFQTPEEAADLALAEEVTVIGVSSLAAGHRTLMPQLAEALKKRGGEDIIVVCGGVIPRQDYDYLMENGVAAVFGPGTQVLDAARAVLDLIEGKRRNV
assay_explanation: biochemical
Type: binding, Sinorhizobium meliloti
condition_summary: SmMCM 0.2 μM, pH 7.5, 30°C; average and standard deviation for three or more independent experiments; n. d. = binding too weak to determine Kd
Task for the reader: assign each of the following compounds its reported log10(Kd).
Remember, log10 of Kd, in nM.

// worked examples, log10(Kd) included
{"compound": "C/C1=C2/[N-][C@H]([C@H](CC(N)=O)[C@@]2(C)CCC(=O)NC[C@@H](C)OP(=O)([O-])O[C@H]2[C@@H](O)[C@@H](n3cnc4cccc(C)c43)O[C@@H]2CO)[C@]2(C)N=C(/C(C)=C3N=C(/C=C4N=C1[C@@H](CCC(N)=O)C\\4(C)C)[C@@H](CCC(N)=O)[C@]\\3(C)CC(N)=O)[C@@H](CCC(N)=O)[C@]2(C)CC(N)=O.[CH2-][C@H]1O[C@@H](n2cnc3c(N)ncnc32)[C@H](O)[C@@H]1O.[Co+3] [Ado[7-MeBza]Cba, 7-Methylbenzimidazolylcobamide]", "log10(Kd)": 2.00}
{"compound": "C/C1=C2/[N-][C@H]([C@H](CC(N)=O)[C@@]2(C)CCC(=O)NC[C@@H](C)OP(=O)([O-])O[C@H]2[C@@H](O)[C@@H](Oc3ccccc3)O[C@@H]2CO)[C@]2(C)N=C(/C(C)=C3N=C(/C=C4N=C1[C@@H](CCC(N)=O)C\\4(C)C)[C@@H](CCC(N)=O)[C@]\\3(C)CC(N)=O)[C@@H](CCC(N)=O)[C@]2(C)CC(N)=O.[CH2-][C@H]1O[C@@H](n2cnc3c(N)ncnc32)[C@H](O)[C@@H]1O.[Co+3] [Ado[Phe]Cba, Phenolylcobamide]", "log10(Kd)": 2.30}
{"compound": "C/C1=C2/[N-][C@H]([C@H](CC(N)=O)[C@@]2(C)CCC(=O)NC[C@@H](C)OP(=O)([O-])O[C@H]2[C@@H](O)[C@@H](n3cnc4ccccc43)O[C@@H]2CO)[C@]2(C)N=C(/C(C)=C3N=C(/C=C4N=C1[C@@H](CCC(N)=O)C\\4(C)C)[C@@H](CCC(N)=O)[C@]\\3(C)CC(N)=O)[C@@H](CCC(N)=O)[C@]2(C)CC(N)=O.[CH2-][C@H]1O[C@@H](n2cnc3c(N)ncnc32)[C@H](O)[C@@H]1O.[Co+3] [Ado[Bza]Cba, Benzimidazolylcobamide]", "log10(Kd)": 2.60}
{"compound": "C/C1=C2/[N-][C@H]([C@H](CC(N)=O)[C@@]2(C)CCC(=O)NC[C@@H](C)OP(=O)([O-])O[C@H]2[C@@H](O)[C@@H](Oc3ccc(C)cc3)O[C@@H]2CO)[C@]2(C)N=C(/C(C)=C3N=C(/C=C4N=C1[C@@H](CCC(N)=O)C\\4(C)C)[C@@H](CCC(N)=O)[C@]\\3(C)CC(N)=O)[C@@H](CCC(N)=O)[C@]2(C)CC(N)=O.[CH2-][C@H]1O[C@@H](n2cnc3c(N)ncnc32)[C@H](O)[C@@H]1O.[Co+3] [Ado[Cre]Cba, para-Cresolylcobamide]", "log10(Kd)": 1.70}

Here's the next entry for you.
Dear colleague, I am looking for the recorded log10(Kd) of the following compound: C/C1=C2/[N-][C@H]([C@H](CC(N)=O)[C@@]2(C)CCC(=O)NC[C@@H](C)OP(=O)([O-])O[C@H]2[C@@H](O)[C@@H](n3cnc4cc(C)c(C)cc43)O[C@@H]2CO)[C@]2(C)N=C(/C(C)=C3N=C(/C=C4N=C1[C@@H](CCC(N)=O)C\4(C)C)[C@@H](CCC(N)=O)[C@]\3(C)CC(N)=O)[C@@H](CCC(N)=O)[C@]2(C)CC(N)=O.[CH2-][C@H]1O[C@@H](n2cnc3c(N)ncnc32)[C@H](O)[C@@H]1O.[Co+3] [AdoCbl, adenosylcobalamin, reference compound]
1.48
